Target: Fructose-bisphosphate aldolase (Mycobacterium tuberculosis (strain ATCC 25618 / H37Rv))
Assay: Mtb FBA enzyme inhibitors, primary screen, biochemical, fluorescence, strain H37Rv (AID 588726);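 also: 0% = vehicle and 100% = reference inhibitor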
Conditions: purified M. tuberculosis FBA, fluorescence read-out, at 1 µM, stronger effect = higher value
The whole screen tested about 360,000 compounds, of which about 8,200 (2.3%) were called active. Shown is part of a subset that was picked to be rich in actives.
Consider the following molecules; for each one, report its inhibition.

Readout inhibition for "Cc1coc2cc3oc(=O)c(CCC(=O)O)c(C)c3cc12" , test system Fructose-bisphosphate aldolase (Mycobacterium tuberculosis (strain ATCC 25618 / H37Rv)), was 16.5% (inactive)

Entry "O=C(COC(=O)CNS(=O)(=O)c1ccc(F)c(F)c1F)NC1CCCC1" : inhibition on Fructose-bisphosphate aldolase (Mycobacterium tuberculosis (strain ATCC 25618 / H37Rv)) = -3.58% (inactive)

// inhibition (Fructose-bisphosphate aldolase (Mycobacterium tuberculosis (strain ATCC 25618 / H37Rv))) for "COCCNC(=O)c1onc(CSc2cccc(C)c2)c1C(=O)O" = 1.01% (inactive)
